Data credit: the supplement of paper PMC8728848

- Tested system: Neu5Ac(a2-6)GalNAc
- Assay method text: glycan array binding signal (z-score within array); higher = stronger binding
- Experimental setup: glycan notation: IUPAC condensed, linker removed
About 410 targets per protein were measured; listed, in parts, are those with the strongest signals and a random draw of the rest.
Metric: glycan array binding signal (z-score)
Numbers only.

Some solved cases for reference:
Binder: DCAL1 (Homo sapiens), Q8IZS7 (protein) MVSNFFHVIQVFEKSATLISKTEHIGFVIYSWRKSTTHLGSRRKFAISIYLSEVSLQKYDCPFSGTSFVVFSLFLICAMAGDVVYADIKTVRTSPLELAFPLQRSVSFNFSTVHKSCPAKDWKVHKGKCYWIAETKKSWNKSQNDCAINNSYLMVIQDITAMVRFNI
Metric: glycan array binding signal (z-score)
Obs value: 0.533

Binder: Gal 3 (Canis lupus) (protein) MADSFSLNDALSGSGNPNPQGWPGPWGNQPAGAGGYPGASYPGAYPGQAPPGGYPGQAPPGGYPGQAPPGGYPGQAPPGGYPGQAPPGGYPGQAPPGTYPGPTAPAYPGPTAPGTQPGQPSGPGAYPPPGQPSAPGAYPAAGPFGIPAGPLTVPYDLPLPGGVKPRMLITILGTVRPSANRLALDFKRGNDVAFHFNPRFNEDNKRVIVCNTKLDNIWGKEERQAAFPFESGKPFKIQVLVESDHFKVAVNDAHLLQYNHRMKNLPEISKLGISGDIDLTSASYAMI
Metric: glycan array binding signal (z-score)
Obs value: -0.257

Binder: Dectin2 (Homo sapiens), Q6EIG7 (protein) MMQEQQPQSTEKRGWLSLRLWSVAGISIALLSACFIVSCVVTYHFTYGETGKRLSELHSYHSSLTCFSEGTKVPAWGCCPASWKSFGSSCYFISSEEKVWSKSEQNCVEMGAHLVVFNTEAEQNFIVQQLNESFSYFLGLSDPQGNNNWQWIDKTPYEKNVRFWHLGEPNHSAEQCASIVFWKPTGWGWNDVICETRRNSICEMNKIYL
Metric: glycan array binding signal (z-score)
Obs value: -0.176

Binder: MAA (Maackia amurensis), P0DKL3 (protein) MATSNSKPTQVLLATFLTFFFLLLNNVNSSDELSFTINNFVPNEADLLFQGEASVSSTGVLQLTRVENGQPQKYSVGRALYAAPVRIWDNTTGSVASFSTSFTFVVKAPNPDITSDGLAFYLAPPDSQIPSGSVSKYLGLFNNSNSDSSNQIVAVELDTYFAHSYDPWDPNYRHIGIDVNGIESIKTVQWDWINGGVAFATITYLAPNKTLIASLVYPSNQTTFSVAASVDLKEILPEWVRVGFSAATGYPTEVETHDVLSWSFTSTLEANCDAATENNVHIARYTA
Metric: glycan array binding signal (z-score)
Obs value: -0.257

Binder: SLR2P2A3 (Tachypleus tridentatus), TAL2_TACTR (protein) MEKGTPPTHDSDNWMGRAKKIGNGGWNQFQFLFFDPNGYLYAVSKDKLYKASPPQSDTDNWIARATEIGSGGWSGSKFLFFHPNGYLYAVHGQRLYKALPPVSNQD
Metric: glycan array binding signal (z-score)
Obs value: -0.16

Item under review: Clrb (Mus musculus) (protein) ITGATKTEQIPVNKTYAACPQNWIGVENKCFYFSEYPSNWTFAQAFCMAQEAQLARFDNQDELNFLMRYKANFDSWIGLHRESSEHPWKWTDNTEYNNTIPIRGEERFAYLNNNGISSTRIYSLRMWICSKLNSYSLHCQTPFFPSGTKHHHHHHHHG . Reported glycan array binding signal (z-score)?
-0.508
